Target: Phosphodiesterase 4 (Homo sapiens, UniProt P27815+Q08499+Q07343+Q08493)
Test: Inhibition of rolipram binding to PDE4
Assay type: protein assay
Entries and their Ki values follow.

smiles string | target or system | Ki / nM
COc1ccc2c(Cc3c(Cl)cncc3Cl)nnc(Oc3ccccc3)c2c1 | Phosphodiesterase 4 (Homo sapiens, UniProt P27815+Q08499+Q07343+Q08493) | 436
C#Cc1nnc(Cc2c(Cl)cncc2Cl)c2ccc(OC)cc12 | Phosphodiesterase 4 (Homo sapiens, UniProt P27815+Q08499+Q07343+Q08493) | 204
COc1ccc2c(Cc3c(Cl)c[n+]([O-])cc3Cl)nnc(-c3nccs3)c2c1 | Phosphodiesterase 4 (Homo sapiens, UniProt P27815+Q08499+Q07343+Q08493) | 17
COc1ccc2c(Cc3c(Cl)cncc3Cl)nnc(N3CCOCC3)c2c1 | Phosphodiesterase 4 (Homo sapiens, UniProt P27815+Q08499+Q07343+Q08493) | 452
COc1ccc2c(Cc3c(Cl)cncc3Cl)nnc(N3CCCC3)c2c1 | Phosphodiesterase 4 (Homo sapiens, UniProt P27815+Q08499+Q07343+Q08493) | 89
COc1ccc2c(Cc3c(Cl)cncc3Cl)nnc(-n3cncn3)c2c1 | Phosphodiesterase 4 (Homo sapiens, UniProt P27815+Q08499+Q07343+Q08493) | 241
